target: T1, BSA (UniProt P02769 25-607); experiment: T7 phage clone binding to protein-coated magnetic beads
T1 construct: Control protein on beads
T1 sequence (P02769 25-607 limits assumed): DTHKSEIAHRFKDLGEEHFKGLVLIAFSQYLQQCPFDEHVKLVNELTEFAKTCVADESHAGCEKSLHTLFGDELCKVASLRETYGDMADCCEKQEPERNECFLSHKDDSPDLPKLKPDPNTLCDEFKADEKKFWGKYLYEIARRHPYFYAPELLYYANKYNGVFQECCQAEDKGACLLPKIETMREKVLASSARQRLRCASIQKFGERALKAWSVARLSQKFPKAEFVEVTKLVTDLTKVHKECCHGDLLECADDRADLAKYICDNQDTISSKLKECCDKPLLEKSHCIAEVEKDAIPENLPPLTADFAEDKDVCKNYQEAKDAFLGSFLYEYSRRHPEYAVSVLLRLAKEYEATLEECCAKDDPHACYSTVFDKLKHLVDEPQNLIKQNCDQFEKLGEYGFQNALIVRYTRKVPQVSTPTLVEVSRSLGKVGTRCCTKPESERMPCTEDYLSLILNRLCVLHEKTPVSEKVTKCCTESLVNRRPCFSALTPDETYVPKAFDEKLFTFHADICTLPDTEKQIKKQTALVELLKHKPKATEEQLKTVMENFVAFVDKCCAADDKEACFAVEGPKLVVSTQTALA
Ends that are not written are not given here.
assay metric: binding result

RKRGGRS (also called RGXRS-displaying phage) [T7 phage displaying RKRGGRS (SEQ ID NO: 166)]    no binding
CKRGSRSSC (not fully specified (bridges); cysteine pairing not given here; also: displayed on T7 phage, also called RGXRS-displaying phage) [T7 phage displaying CKRGSRSSC (SEQ ID NO: 181)]    no binding
CQRGTRSRC (not fully specified (bridges); cysteine pairing not given here; also: displayed on T7 phage, also called RGXRS-displaying phage) [T7 phage displaying CQRGTRSRC (SEQ ID NO: 182)]    no binding
